- Protocol Text: Induction of interphase microtubule depolymerization in rat A10 cells
- Type: cell-based
The entries below are paired with their reported pEC50.
Format: numeric value only, no unit, no commentary.

Check out these entries, answers already filled in.
CCOC(=O)c1[nH]c(Br)c(-c2ccc(SC)cc2)c1Br ... 4.73
CCOC(=O)c1[nH]c(Br)c(-c2ccc(Br)cc2)c1Br ... 4.03
CCOC(=O)c1cc(-c2ccc(OC)cc2)c(C(=O)c2ccc(OC)cc2)[nH]1 ... 4
COc1ccc(Nc2nc(C)nc3c2C[C@@H](C)C3)cc1 ... 3.28
CCOC(=O)c1[nH]c(Br)c(-c2cccc3ccccc23)c1Br ... 5.15

Q: Consider the molecule CCOC(=O)c1[nH]c(Br)c(-c2ccc(OC(F)(F)F)cc2)c1Br and give its recorded pEC50.
Result: 4.57

Q: Consider the molecule COc1cccc(N(C)c2nc(C)nc3c2C[C@H](C)C3)c1 and give its recorded pEC50.
Result: 5.8

Q: Consider the molecule CCOC(=O)c1[nH]c(Br)c(-c2ccc(OC)c(F)c2)c1Br and give its recorded pEC50.
Result: 4.85

Q: Consider the molecule CCOC(=O)c1[nH]c(Br)c(-c2ccccc2)c1Br and give its recorded pEC50.
Result: 3.78

Q: Consider the molecule COc1ccc(C(=O)c2[nH]c(C(=O)c3ccc(OC)cc3)c(-c3ccc(OC)cc3)c2-c2ccc(OC)cc2)cc1 and give its recorded pEC50.
Result: 3.3

Q: Consider the molecule CCOC(=O)c1[nH]c(Br)c(-c2ccc3c(c2)OCCO3)c1Br and give its recorded pEC50.
Result: 4.68
